metric: melting point

>  <compound>
Cc1c(N[C@H]2CC[C@H](N)CC2)nc2ccnn2c1Nc1ccc(N2CCCCC2)cc1 [Compound 129]

>  <melting point>
58 to 66 °C

$$$$
>  <compound>
CCc1c(N[C@H]2CC[C@H](N)CC2)nc2ccnn2c1Nc1ccc(SC)cc1 [Compound 36]

>  <melting point>
190 to 192 °C

$$$$
>  <compound>
CC(C)c1c(N[C@H]2CC[C@H](N)CC2)nc2ccnn2c1Nc1ccc(F)c(Cl)c1 [Compound 115]

>  <melting point>
165 to 168 °C

$$$$

What measured melting point goes with CCOc1ccc(Nc2c(CC)c(N[C@H]3CC[C@H](N)CC3)nc3ccnn23)cc1 [Compound 31] ?
131 to 133 °C

Query CCc1c(N[C@H]2CC[C@H](N)CC2)nc2ccnn2c1Nc1ccc(OC)c(C(F)(F)F)c1 [Compound 113] next
181 to 183 °C

Query CCc1c(N[C@H]2CC[C@H](N)CC2)nc2ccnn2c1Nc1ccc(Br)cc1 [Compound 159] next
184 to 187 °C

Query CCc1c(N[C@H]2CC[C@H](N)CC2)nc2ccnn2c1Nc1ccc(I)cc1 [Compound 168] next
104 to 106 °C

Query C=CCc1c(N[C@H]2CC[C@H](N)CC2)nc2ccnn2c1Nc1ccc(F)c(Cl)c1 [Compound 19] next
176 to 178 °C

Query C=CCc1c(N[C@H]2CC[C@H](N)CC2)nc2ccnn2c1Nc1ccccc1Cl [Compound 17] next
153 to 155 °C

Query CCc1c(N[C@H]2CC[C@H](N)CC2)nc2ccnn2c1Nc1ccc(Oc2ccc(C)cc2)cc1 [Compound 57] next
102 to 104 °C

Query CCc1c(N[C@H]2CC[C@H](N)CC2)nc2ccnn2c1Nc1ccc(OC)c(OC)c1 [Compound 58] next
181 to 185 °C

Query Cc1c(N[C@H]2CC[C@H](N)CC2)nc2ccnn2c1Nc1ccccc1 [Compound 102] next
96 to 99 °C

Query CCCCOc1ccc(Nc2c(CC)c(N[C@H]3CC[C@H](N)CC3)nc3ccnn23)cc1 [Compound 56] next
144 to 148 °C

Query CCOC(=O)c1cnn2c(Nc3ccc(F)c(Cl)c3)cc(N[C@H]3CC[C@H](N)CC3)nc12 [Compound 9] next
221 to 223 °C
